# subject-of-test: Amine oxidase [flavin-containing] B (Rattus norvegicus, UniProt P19643)
# Sequence (P19643 whole entry): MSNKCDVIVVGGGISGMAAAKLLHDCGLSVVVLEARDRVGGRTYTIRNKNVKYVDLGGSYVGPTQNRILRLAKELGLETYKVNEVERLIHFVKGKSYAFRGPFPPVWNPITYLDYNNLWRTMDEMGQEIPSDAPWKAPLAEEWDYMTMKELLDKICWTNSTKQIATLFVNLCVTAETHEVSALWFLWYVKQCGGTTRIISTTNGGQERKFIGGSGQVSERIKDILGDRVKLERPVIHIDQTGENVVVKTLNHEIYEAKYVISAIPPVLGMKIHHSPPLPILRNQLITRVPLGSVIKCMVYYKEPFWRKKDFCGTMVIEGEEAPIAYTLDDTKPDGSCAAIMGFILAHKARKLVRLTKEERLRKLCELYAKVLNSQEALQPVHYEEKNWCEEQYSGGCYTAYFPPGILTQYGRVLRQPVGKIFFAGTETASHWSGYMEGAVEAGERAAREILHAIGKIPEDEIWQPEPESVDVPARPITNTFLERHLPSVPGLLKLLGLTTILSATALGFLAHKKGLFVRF
pIC50 overview
# pIC50 = -log10(concentration in molar units)

CCNC(=S)N1NC2=C(CCCC2)C1c1ccco1 (stereo not given) | 5.56
O=C(NCCN1CCOCC1)c1ccc(Cl)cc1 [MOCLOBEMIDE] | 4.05
CNC(=S)N1NC2=C(CCCC2)C1c1ccco1 (stereo not given) | 5.52
S=C(Nc1ccccc1)N1NC2=C(CCCC2)C1c1ccco1 (stereo not given) | 4.09

pIC50 of NC(=S)N1NC2=C(CCCC2)C1c1ccco1 (stereo not given) on Amine oxidase [flavin-containing] B (Rattus norvegicus, UniProt P19643)?
5.86

====

# subject-of-test: Amine oxidase [flavin-containing] A (Rattus norvegicus)
# Sequence (P21396 whole entry): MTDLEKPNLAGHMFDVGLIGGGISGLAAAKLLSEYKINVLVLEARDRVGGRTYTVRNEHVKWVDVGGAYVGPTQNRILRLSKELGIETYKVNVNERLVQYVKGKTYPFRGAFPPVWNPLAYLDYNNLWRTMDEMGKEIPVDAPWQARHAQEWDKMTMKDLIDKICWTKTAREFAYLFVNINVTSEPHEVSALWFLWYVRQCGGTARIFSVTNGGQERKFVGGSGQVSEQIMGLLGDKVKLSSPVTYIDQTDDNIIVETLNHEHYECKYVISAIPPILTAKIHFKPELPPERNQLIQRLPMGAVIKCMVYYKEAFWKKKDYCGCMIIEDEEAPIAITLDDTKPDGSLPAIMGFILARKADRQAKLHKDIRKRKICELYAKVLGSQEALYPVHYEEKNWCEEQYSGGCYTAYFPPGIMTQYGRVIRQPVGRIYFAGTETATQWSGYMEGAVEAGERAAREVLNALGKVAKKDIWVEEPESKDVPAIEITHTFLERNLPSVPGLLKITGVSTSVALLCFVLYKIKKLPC
assay-metric: pIC50
# pIC50 = -log10(concentration in molar units)

Recorded results for 5 compounds are shown here.
CNC(=S)N1NC2=C(CCCC2)C1c1cccs1 (stereo unspecified) | 4.21
CNC(=S)N1NC2=C(CCCC2)C1c1ccco1 (stereo unspecified) | 3.97
NC(=S)N1NC2=C(CCCC2)C1c1ccco1 (stereo unspecified) | 4.10
NC(=S)N1NC2=C(CCCC2)C1c1cccs1 (stereo unspecified) | 4.02
S=C(Nc1ccccc1)N1NC2=C(CCCC2)C1c1ccco1 (stereo unspecified) | 6.11

Item CCNC(=S)N1NC2=C(CCCC2)C1c1cccs1 (stereo unspecified) has what recorded pIC50?
5.52

====

Ratio Ki overview
# Species: Rattus norvegicus
# protocol-notes: Selectivity index, ratio of Ki for rat MAOA to Ki for rat MAOB
Keep the answer to the number alone.

CCNC(=S)N1NC2=C(CCCC2)C1c1cccs1 (stereo not drawn) | 0.57
CCNC(=S)N1NC2=C(CCCC2)C1c1ccco1 (stereo not drawn) | 2.19
NC(=S)N1NC2=C(CCCC2)C1c1cccs1 (stereo not drawn) | 3320
CNC(=S)N1NC2=C(CCCC2)C1c1ccco1 (stereo not drawn) | 4.2

Item S=C(Nc1ccccc1)N1NC2=C(CCCC2)C1c1ccco1 (stereo not drawn) has what recorded Ratio Ki?
0.0034

Item CNC(=S)N1NC2=C(CCCC2)C1c1cccs1 (stereo not drawn) has what recorded Ratio Ki?
2.96

Item NC(=S)N1NC2=C(CCCC2)C1c1ccco1 (stereo not drawn) has what recorded Ratio Ki?
4060

Item S=C(Nc1ccccc1)N1NC2=C(CCCC2)C1c1cccs1 (stereo not drawn) has what recorded Ratio Ki?
0.004

====

# subject-of-test: UniProt:P21396
yes if Ki is below 3000 nM. no if not; exact matches included in no.

CNC(=S)N1NC2=C(CCCC2)C1c1cccs1 (stereo not given) | no
S=C(Nc1ccccc1)N1NC2=C(CCCC2)C1c1cccs1 (stereo not given) | yes
S=C(Nc1ccccc1)N1NC2=C(CCCC2)C1c1ccco1 (stereo not given) | yes

Below 3000 nM on Ki? Entry CCNC(=S)N1NC2=C(CCCC2)C1c1cccs1 (stereo not given)
yes

====

Ki overview
# subject-of-test: Amine oxidase [flavin-containing] B (Rattus norvegicus, UniProt P19643)
Hi! Could you send only the number? It should be in nM, unit omitted.

Recorded results for 3 molecules are shown here.
NC(=S)N1NC2=C(CCCC2)C1c1ccco1 (centres undefined) | 0.96
CCNC(=S)N1NC2=C(CCCC2)C1c1cccs1 (centres undefined) | 3010
O=C(NCCN1CCOCC1)c1ccc(Cl)cc1 [MOCLOBEMIDE] | 1080

Next molecule, Ki to be filled in.
Item NC(=S)N1NC2=C(CCCC2)C1c1cccs1 (centres undefined) has what recorded Ki?
0.9
